EXPERIMENT_NOTES: modulators of HCV replicon luciferase signal, primary screen, HCV replication inhibitor project, Huh7 cells, luciferase reporter (AID 1109);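 note: huh7 hepatoma cells harbouring a luciferase neomycin HCV replicon reporter; luciferase luminescence as measure of HCV replicon replication; test concentration not given here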
SETUP_CONDITIONS: 48 h, higher = more signal
REPORTED_PROPERTY: z-score
Give a plain numeric answer without units written out.

// field: z-score; key: COCCOC(=O)N1C(=O)[C@@]2(c3cc(C#CCNC(N)=O)ccc31)[C@H](c1ccccc1OCCO)N1[C@H](c3ccccc3)[C@H](c3ccccc3)OC(=O)[C@H]1[C@@H]2C(=O)NC[C@H](O)c1ccccc1 ; value = -1.1

// field: z-score; key: CC(=O)NCCCC[C@@H]1NC(=O)[C@H]2C[C@@H](C(=O)NCCCCCCN(C)C)[C@@H](c3ccc(O)cc3)N2C1=O ; value = 1.87

// field: z-score; key: CN(C)CCCC[C@@H]1NC(=O)[C@@H]2C[C@H](C(=O)O)[C@H](c3ccc(O)cc3)N2C1=O ; value = 0.883

// field: z-score; key: COC(=O)[C@@]1(Cc2ccc(OC)cc2)[C@H]2c3cc(C(=O)N(C)C)n(CCc4ccc(OC)c(Br)c4)c3C[C@H]2CN1C(=O)c1ccccc1 ; value = -2.54

// field: z-score; key: COc1ccc(NN2C(C(O)c3cc(OC)c(OC)c(OC)c3)C=CC3C(=O)N(C4CCCCC4)C(=O)C32)cc1 (configuration not stated) ; value = -1.92

// field: z-score; key: C=CCc1cccc([C@H]2N[C@H](C(=O)O)CC[C@@H]2C)c1 ; value = -0.222

// field: z-score; key: CCCC/C=C/[C@H]([C@@H](O)Cc1ccccc1)N(CC#Cc1ccccc1)Cc1ccccc1Br ; value = -1.29

###

EXPERIMENT_NOTES: splicing luciferase reporter signal modulators, primary screen, spliceosome inhibition project, cell-based, HEK293, splice +/- reporter (AID 1101);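 note: HEK293 cells carrying a splicing-competent luciferase reporter gene; test concentration not given here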
SETUP_CONDITIONS: luminescence, 24 h, higher = more signal, called active from +8 up or from −8 down
Category | rule: reported z-score within range, see low range = under -1, mid range = from -1 up to -0.5, high range = -0.5 and over

GET /class?item= CC(C)NC(=O)[C@@]1(Cc2ccccc2I)c2ccccc2C(=O)N(C2CCCCC2)[C@H]1c1ccc(CO)cc1 high range

GET /class?item= [N-]=[N+]=NCc1ccccc1C[C@@]1(C(=O)N2CCOCC2)N=C(c2ccc(OCCCO)cc2)O[C@@H]1c1ccccc1N=[N+]=[N-] mid range

GET /class?item= CCCCO[C@H]1C[C@H]2C(Br)=C[C@@]1(CO)C(=O)[C@]21CO1 low range

GET /class?item= C=CC[C@@]1(C(=O)N2CCOCC2)N=C(c2ccc(OCCCO)cc2)O[C@@H]1c1ccccc1 high range

GET /class?item= C=CCC(OC(C)=O)[C@@H]1[C@@H](N(Cc2ccc(-c3ccccc3)cc2)C(=O)c2ccc(-c3ccccc3)cc2)c2cc(OCCCO)ccc2N1C(=O)Cc1ccc(OC)cc1 (stereo partly drawn) mid range

GET /class?item= COC(=O)[C@@]1(Cc2ccc(OC)cc2)[C@H]2c3cc(C(=O)N(C)C)n(CCc4ccc(OC)c(Br)c4)c3C[C@H]2CN1C(=O)c1ccccc1 low range

GET /class?item= CC(C)=C1C(=O)C(c2ccccc2)=C2CN3C(=O)N(CCc4ccccc4)C(=O)[C@]3(Cc3ccccc3)[C@H]21 high range

GET /class?item= COC(=O)C[C@H]1O[C@]2(C(=O)N(C)c3ccccc32)[C@@H](C)[C@@H]1[Si](C)(C)c1ccc(OC)cc1 low range

GET /class?item= COCCOC(=O)N1C(=O)[C@@]2(c3cc(C#CCNC(N)=O)ccc31)[C@H](c1ccccc1OCCO)N1[C@H](c3ccccc3)[C@H](c3ccccc3)OC(=O)[C@H]1[C@@H]2C(=O)NC[C@H](O)c1ccccc1 high range

GET /class?item= Cc1ccc(N2C(=O)c3ccccc3[C@@H](C(=O)NCC(F)(F)F)[C@@H]2c2ccc(CO)cc2)nc1 low range

GET /class?item= CCC1=C2CN(Cc3ccccc3Br)[C@@H]([C@@H](O)Cc3ccccc3)C2C=CCC1 (stereo partly drawn) low range

GET /class?item= COCCCNC(=O)[C@@]1(c2ccc([N+](=O)[O-])cc2)CC(=O)N(C2CCCCC2)[C@@H]1c1ccc(CO)cc1 mid range

GET /class?item= COCCOC(=O)N1C(=O)[C@@]2(c3cc(C#CCCO)ccc31)[C@H](c1ccc(O)cc1)N1[C@H](c3ccccc3)[C@H](c3ccccc3)OC(=O)[C@H]1[C@@H]2C(=O)Nc1nc2ccccc2s1 low range

GET /class?item= COC(=O)c1ccc(C#CC(NP(=O)(c2ccccc2)c2ccccc2)c2ccccc2)cc1 (stereo not drawn) high range

GET /class?item= CN1C2C=C(c3ccc(CO)cc3)C(C3C(=O)N(C(N)=O)C(=O)C32)C1c1cccs1 (stereo not drawn) mid range

GET /class?item= CCOC(=O)C1=CCC(c2cccc3ccccc23)N(S(=O)(=O)c2ccc(C)cc2)C1 (stereo not drawn) high range

GET /class?item= COC(=O)C[C@H]1O[C@]2(C(=O)N(Cc3ccccc3)c3ccc(I)cc32)[C@@H](C)[C@@H]1[Si](C)(C)c1ccc(OC)cc1 mid range

GET /class?item= COCCCNC(=O)[C@@]1(Sc2ccc(C)cc2)CC(=O)N(Cc2cc(C(F)(F)F)cc(C(F)(F)F)c2)[C@@H]1c1ccc(CO)cc1I low range

GET /class?item= O=C1c2ccccc2[C@](Cc2ccccc2I)(C(=O)O)[C@H](c2ccc(CO)cc2)N1C1CCCCC1 low range

GET /class?item= CC(c1ccccc1)C(O)C1C=CC2C(=O)N(C)C(=O)C2N1N(c1ccccc1)c1ccccc1 (stereo not drawn) high range

GET /class?item= CC1=C([C@H](O)CCc2ccccc2)[C@H](CO)[C@@H]2C(=O)N(Cc3ccccc3)C(=O)[C@@H]2C1 high range

GET /class?item= O=C1OCC=C[C@H]2OC34C=CCN(Cc5ccccc5)C(=O)[C@H]3N(CCCCCO)C(=O)[C@@H]4[C@@H]12 (stereo partly drawn) low range

GET /class?item= COCCOC(=O)N1C(=O)[C@@]2(c3cc(C#CCC(C(=O)OC)C(=O)OC)ccc31)[C@H](C(=O)N1CCN(c3ncccn3)CC1)[C@H]1C(=O)O[C@H](c3ccccc3)[C@H](c3ccccc3)N1[C@@H]2c1ccc(O)cc1 low range

GET /class?item= CCOC(=O)C[C@H]1[C@H](OC(=O)c2ccccc2-c2ccccc2)[C@@H](NC(=O)c2ccc(-c3ccccc3)cc2)c2cc(OCCCO)ccc2N1C(=O)Cc1ccc(OC)cc1 high range

GET /class?item= COCCOC(=O)N1C(=O)[C@@]2(c3cc(C#CCCO)ccc31)[C@H](C(=O)N1CCCCCCC1)[C@H]1C(=O)O[C@H](c3ccccc3)[C@H](c3ccccc3)N1[C@@H]2c1ccc(O)cc1 low range

GET /class?item= C=C(CCCC)C(=O)CC[C@@H](OC(=O)c1cccnc1)c1cccc(OCCO)c1 high range

GET /class?item= COCCOC(=O)N1C(=O)[C@@]2(c3cc(C#CCNC(N)=O)ccc31)[C@H](c1ccc(OCCO)cc1)N1[C@H](c3ccccc3)[C@H](c3ccccc3)OC(=O)[C@H]1[C@@H]2C(=O)Nc1nc2ccccc2s1 high range

###

EXPERIMENT_NOTES: basal MM1S mitochondrial membrane potential changes, profiling panel, cell-based, JC-1 fluorescence, 24 h, 100 nL compound (AID 1170); note: test concentration not given here
SETUP_CONDITIONS: higher = more signal
REPORTED_PROPERTY: z-score
Give a plain numeric answer without units written out.

// field: z-score; key: C=CCC(OC(C)=O)[C@@H]1[C@@H](N(Cc2cc3ccccc3o2)C(=O)c2ccc(C)cc2)c2cc(OCCCO)ccc2N1C(=O)c1ccc2ccccc2n1 (some centres undefined) ; value = 1.19

// field: z-score; key: O=C1O[C@@H](c2ccccc2)[C@@H](c2ccccc2)N2[C@@H](c3ccccc3OCCO)[C@]3(C(=O)Nc4ccc(C#CC5=CCCCC5)cc43)[C@@H](C(=O)O)[C@H]12 ; value = -0.999

// field: z-score; key: CCCCO[C@H]1C[C@H]2C(Br)=C[C@@]1(CO)C(=O)[C@]21CO1 ; value = 0.149

// field: z-score; key: NC(=O)[C@H]1[C@@H]2C(=O)O[C@@H](c3ccccc3)[C@@H](c3ccccc3)N2[C@@H](c2ccc(O)cc2)[C@]12C(=O)Nc1ccc(C#CCCO)cc12 ; value = 0.196

// field: z-score; key: CO[C@@H]1COC(=O)[C@H](C)NC(=O)CC=C[C@@H](C)[C@H](NS(=O)(=O)c2ccc(C)cc2)COC(=O)CC=C[C@@H]1C ; value = 0.203

// field: z-score; key: CCOC(=O)C[C@H]1[C@H](OC(=O)c2ccccc2-c2ccccc2)[C@@H](NC(=O)C2CCCCC2)c2cc(OCCCO)ccc2N1C(=O)c1ccccc1 ; value = 0.109

// field: z-score; key: O=C(NCC(O)CO)[C@]1(Cc2ccccc2)N=C(c2ccc(OCCCO)cc2)O[C@@H]1c1ccccc1 (some centres undefined) ; value = 0.245

// field: z-score; key: C=CCC1=C[C@H]2[C@H]([C@@H]3C=C[C@]2(CC=C)C(=O)[C@]32CO2)[C@@]2(CO2)C1=O ; value = -2.08

// field: z-score; key: CCN1C(C)=C(C(=O)OC)[C@@H](c2ccccc2)N2C(=O)[C@](O)(C(=O)OC)[C@@H](c3ccccc3)C(C(C)=O)=C12 ; value = -0.14

// field: z-score; key: C[C@@H]1CC[C@H]2C(=O)N3[C@@H](CC[C@@H](C)[C@@H]3c3cccc(N4CCOCC4)c3)C(=O)N2[C@H]1c1cccc(Br)c1 ; value = 0.521

// field: z-score; key: O=C/C=C/c1ccccc1Cl ; value = 1.09

// field: z-score; key: COc1ccc([Si](C)(C)[C@H]2[C@H](CC(=O)N3Cc4ccccc4C[C@H]3CO)O[C@@]3(C(=O)N(Cc4cccc(N5CCOC5=O)c4)c4ccccc43)[C@@H]2C)cc1 ; value = -0.223

// field: z-score; key: CCOC(=O)[C@H]1C/C=C/C[C@H](C(=O)OCC)C(=O)O[C@H]2[C@@H](OC)O[C@H](CO)[C@@H](OC(=O)Nc3ccc(Br)cc3)[C@@H]2OC1=O ; value = -1.83

// field: z-score; key: C=CC[C@]1(C(=O)O)N=C(c2ccc(OCCCO)cc2)O[C@H]1c1ccccc1 ; value = 1.29

// field: z-score; key: C=CCNC(=O)[C@H]1[C@@H]2C(=O)O[C@@H](c3ccccc3)[C@@H](c3ccccc3)N2[C@@H](c2ccc(O)cc2)[C@]12C(=O)Nc1ccc(C#CCNC(N)=O)cc12 ; value = 0.716

// field: z-score; key: COc1cc([C@@H]2N[C@H](C(=O)O)Cc3c2[nH]c2ccccc32)cc(OC)c1OC ; value = 0.639

// field: z-score; key: Cc1cc(C)c(C(O)C2C=CC3C(=O)N(C)C(=O)C3N2N2CCCCC2)c(C)c1 (centres undefined) ; value = 0.173

// field: z-score; key: Cc1ccc(S(=O)(=O)c2cc3oc2CC[C@@H](CO)NC(=O)N(C)Cc2cn(nn2)C[C@H](Cc2ccccc2)NC3=O)cc1 ; value = 0.536

// field: z-score; key: C[C@@H]1CC[C@H]2C(=O)N3[C@@H](CC[C@@H](C)[C@@H]3c3cccc(N4CCOCC4)c3)C(=O)N2[C@H]1c1cccc(N2CCOCC2)c1 ; value = 0.713

// field: z-score; key: Cc1ccc(N2C(=O)c3ccccc3[C@](C)(C(=O)NCC(C)C)[C@@H]2c2ccc(CO)cc2)nc1 ; value = -0.634

// field: z-score; key: COc1cc(Cc2cc3c(c(CCc4ccccc4)n2)[Si](C(C)C)(C(C)C)OC3)cc(OC)c1OC ; value = -0.234

// field: z-score; key: CCN1C(C)=C(C(=O)OC)[C@@H](c2ccccc2)N2C(=O)[C@@]3(C(=O)OC)O[C@@]12[C@@H]1C(=O)N(C)C(=O)[C@@H]13 ; value = -0.196

// field: z-score; key: O=C1O[C@H](c2ccccc2)[C@H](c2ccccc2)N2[C@H]1[C@@H](C(=O)NC[C@H](O)c1ccccc1)[C@]1(C(=O)Nc3ccc(C#CC4(O)CCCCCC4)cc31)[C@H]2c1ccc(OCCO)cc1 ; value = -0.469

// field: z-score; key: [N-]=[N+]=NCc1ccccc1C[C@@]1(C(=O)O)N=C(c2ccc(OCCCO)cc2)O[C@@H]1c1ccccc1N=[N+]=[N-] ; value = -1.31

// field: z-score; key: O=C(NCC(F)(F)F)[C@@H]1c2ccccc2C(=O)N(Cc2ccccc2Cl)[C@H]1c1ccc(CO)cc1 ; value = 0.499

// field: z-score; key: CCOC(=O)C1=CCC(c2cccc3ccccc23)N(S(=O)(=O)c2ccc(C)cc2)C1 (centres undefined) ; value = -1.64

// field: z-score; key: O=C(O)[C@@H]1Cc2c([nH]c3ccccc23)[C@@H](c2ccccc2)N1 ; value = 0.0857

// field: z-score; key: CO[C@H]1COC(=O)[C@H](C)NC(=O)CC=C[C@@H](C)[C@H](NS(=O)(=O)c2ccc(C)cc2)COC(=O)[C@@H](OCc2ccccc2)C=C[C@@H]1C ; value = 1.02

// field: z-score; key: COC(=O)c1ccc(C#CC(NP(=O)(c2ccccc2)c2ccccc2)c2ccccc2)cc1 (centres undefined) ; value = -1.3
